- MEASUREMENT TARGET: Metabotropic glutamate receptor 5 (Rattus norvegicus, UniProt P31424)
- Sequence (P31424 whole entry): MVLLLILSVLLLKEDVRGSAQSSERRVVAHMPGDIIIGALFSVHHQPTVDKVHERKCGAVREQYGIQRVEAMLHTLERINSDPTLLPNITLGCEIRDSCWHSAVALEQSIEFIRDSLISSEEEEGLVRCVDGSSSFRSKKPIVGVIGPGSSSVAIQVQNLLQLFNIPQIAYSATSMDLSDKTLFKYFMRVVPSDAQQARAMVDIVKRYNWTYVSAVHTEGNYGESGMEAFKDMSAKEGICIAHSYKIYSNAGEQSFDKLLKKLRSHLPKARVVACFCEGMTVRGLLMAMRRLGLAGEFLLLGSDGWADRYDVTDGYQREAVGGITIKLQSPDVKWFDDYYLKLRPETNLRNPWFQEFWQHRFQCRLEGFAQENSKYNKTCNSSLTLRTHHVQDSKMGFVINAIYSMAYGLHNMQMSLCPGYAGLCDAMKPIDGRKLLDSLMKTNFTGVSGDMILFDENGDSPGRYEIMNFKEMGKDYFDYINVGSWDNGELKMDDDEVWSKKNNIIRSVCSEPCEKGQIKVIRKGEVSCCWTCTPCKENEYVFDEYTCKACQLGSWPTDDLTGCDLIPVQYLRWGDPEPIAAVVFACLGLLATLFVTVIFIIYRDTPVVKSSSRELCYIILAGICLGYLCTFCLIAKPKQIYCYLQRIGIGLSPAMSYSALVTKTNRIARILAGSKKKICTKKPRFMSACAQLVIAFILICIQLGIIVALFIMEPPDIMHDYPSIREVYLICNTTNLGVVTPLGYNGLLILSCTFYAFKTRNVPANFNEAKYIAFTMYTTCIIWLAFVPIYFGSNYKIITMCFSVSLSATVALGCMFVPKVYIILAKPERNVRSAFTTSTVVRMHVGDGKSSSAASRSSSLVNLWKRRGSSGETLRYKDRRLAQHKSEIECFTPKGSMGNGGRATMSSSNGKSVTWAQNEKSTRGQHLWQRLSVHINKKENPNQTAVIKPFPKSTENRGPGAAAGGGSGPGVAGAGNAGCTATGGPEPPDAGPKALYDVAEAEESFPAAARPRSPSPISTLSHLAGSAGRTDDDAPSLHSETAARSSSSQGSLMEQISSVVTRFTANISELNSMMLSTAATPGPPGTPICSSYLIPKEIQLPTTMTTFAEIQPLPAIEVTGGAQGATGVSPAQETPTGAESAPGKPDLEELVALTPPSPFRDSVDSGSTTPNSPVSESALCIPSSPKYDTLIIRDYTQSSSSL
- METHOD NOTES: Positive allosteric modulation of rat mGluR5 expressed in HEK293 cells
pEC50: −log10 of the molar value.
ASSAY ENDPOINT: pEC50

Below, 5 molecules whose answers are already recorded.
| SMILES ENTRY | pEC50 |
| --- | --- |
| C=CCSc1nnc2c(n1)O[C@@H](c1cc(C)ccc1OC(C)=O)N(C(C)=O)c1ccccc1-2 | 6.05 |
| CSc1nnc2c(n1)O[C@@H](c1ccccc1C)N(C(C)=O)c1ccccc1-2 | 5.52 |
| CCC(=O)N1c2ccccc2-c2nnc(SC)nc2O[C@H]1c1cccc(C)n1 | 5.63 |
| CCSc1nnc2c(n1)O[C@@H](c1ccc(OC(C)=O)cc1)N(C(C)=O)c1ccccc1-2 | 6.09 |
| C=CCSc1nnc2c(n1)O[C@@H](c1ccc(OC(C)=O)c(OCC)c1)N(C(C)=O)c1ccccc1-2 | 5.90 |

P: CCOc1cc([C@@H]2Oc3nc(SC)nnc3-c3ccccc3N2C(=O)CC)cc(Br)c1OC
Q: CSc1nnc2c(n1)O[C@H](c1cn(C(C)=O)c3ccccc13)N(C(C)=O)c1ccccc1-2
R: CCC(=O)N1c2ccccc2-c2nnc(SC)nc2O[C@H]1c1ccc(OC)c(C)c1
Q. Reorder: pEC50, max to min. Answer by naming the labels in the order asked.
A. Q, R, P

---

- MEASUREMENT TARGET: Metabotropic glutamate receptor 5 (Rattus norvegicus, UniProt P31424)
- METHOD NOTES: Positive allosteric modulation of rat mGluR5 expressed in HEK293 cells
ASSAY ENDPOINT: EC50 (nM)

Below, 5 molecules whose answers are already recorded.
| SMILES ENTRY | EC50 / nM |
| --- | --- |
| CCC(=O)N1c2ccccc2-c2nnc(SC)nc2O[C@H]1c1ccccc1Br | 1350 |
| CCCSc1nnc2c(n1)O[C@@H](c1cc(OC)c(OC)cc1Cl)N(C(C)=O)c1ccccc1-2 | 1200 |
| CCCSc1nnc2c(n1)O[C@@H](c1ccncc1)N(C(C)=O)c1ccccc1-2 | 490 |
| CCC(=O)Oc1ccc(Br)c([C@@H]2Oc3nc(SC)nnc3-c3ccccc3N2C(=O)CC)c1 | 5750 |
| C=CCSc1nnc2c(n1)O[C@@H](c1ccccn1)N(C(=O)CC)c1ccccc1-2 | 437 |

a: CCCSc1nnc2c(n1)O[C@@H](c1cccn1C)N(C(C)=O)c1ccccc1-2
b: C=CCSc1nnc2c(n1)O[C@@H](c1ccccc1F)N(C(C)=O)c1ccccc1-2
Q. Endpoint returns whichever of a and b has the numerically higher EC50. Indicate which entry you chose by stating its label.
A. b
(b: 1120 nM, a: 347 nM)

A: CCSc1nnc2c(n1)O[C@@H](C)N(C(C)=O)c1ccccc1-2
B: CCSc1nnc2c(n1)O[C@@H](c1cccn1C)N(C(=O)CC)c1ccccc1-2
Q. Select the item whose EC50 value is smaller, choosing between A and B . Indicate which entry you chose by stating its label.
A. B

---

- MEASUREMENT TARGET: UniProtKB P31424
- METHOD NOTES: Positive allosteric modulation of rat mGluR5 expressed in HEK293 cells
ASSAY ENDPOINT: EC50 (nM)

a: C=CCSc1nnc2c(n1)O[C@@H](c1ccc(OCC)c(OC)c1)N(C(C)=O)c1ccccc1-2
b: CSc1nnc2c(n1)O[C@@H](c1cccc(C)n1)N(C(C)=O)c1ccccc1-2
c: C=CCSc1nnc2c(n1)O[C@@H](c1cc(Br)c(OC(C)=O)c(OC)c1)N(C(C)=O)c1ccccc1-2
d: C=CCSc1nnc2c(n1)O[C@@H](c1cccs1)N(C(C)=O)c1ccccc1-2
Q. Sort the list above on EC50 in ascending fashion. Answer by naming the labels in the order asked.
A. d, a, c, b

A: C=CCSc1nnc2c(n1)O[C@@H](c1ccccn1)N(C(C)=O)c1ccccc1-2
B: CCC(=O)N1c2ccccc2-c2nnc(SC)nc2O[C@H]1c1ccccc1C
C: CCSc1nnc2c(n1)O[C@@H](c1ccco1)N(C(C)=O)c1ccccc1-2
D: CCOc1cc([C@@H]2Oc3nc(SC)nnc3-c3ccccc3N2C(=O)CC)ccc1OC
Q. Reorder: EC50, max to min. Answer by naming the labels in the order asked.
A. B, D, C, A
(B: 2000 nM, D: 1380 nM, C: 871 nM, A: 562 nM)
